tested on: TTR; test: TTR editing in HUH7 cells transfected with Spy Cas9 mRNA and dgRNAs (Table 5); format: cell-based, human; details: HUH7 cells co-transfected with Spy Cas9 mRNA (SEQ ID NO:2) and dgRNAs
Measurement Label: Avg % Deletion (%)

[[record]]
chain_sequence = "GACGACAGCCGUGGUGGAAU (tested as dual guide RNA, chemistry not given here) [CR003388]"
measurement_label = "Avg % Deletion"
numeric_readout = 56.45

[[record]]
chain_sequence = "CCGUGGUGGAAUAGGAGUAG (tested as dual guide RNA, chemistry not given here) [CR003386]"
measurement_label = "Avg % Deletion"
numeric_readout = 69.34

[[record]]
chain_sequence = "CUGAGGAGGAAUUUGUAGAA (tested as dual guide RNA, chemistry not given here) [CR003364]"
measurement_label = "Avg % Deletion"
numeric_readout = 23.03

[[record]]
chain_sequence = "AAUAGGAGUAGGGGCUCAGC (tested as dual guide RNA, chemistry not given here) [CR003384]"
measurement_label = "Avg % Deletion"
numeric_readout = 16.29


###

Each entry below carries its recorded Avg % Deletion.
tested on: TTR; test: TTR editing in primary human hepatocytes electroporated with Spy Cas9 protein loaded with dgRNAs (Table 7); format: cell-based; details: dgRNA electroporated with Spy Cas9 protein (RNP)
Measurement Label: Avg % Deletion (%)

[[record]]
chain_sequence = "GCUGCAUGGGCUCACAACUG (tested as dual guide RNA, chemistry not given here) [CR003361]"
measurement_label = "Avg % Deletion"
numeric_readout = 0.37

[[record]]
chain_sequence = "GCGGCGGGGGCCGGAGUCGU (tested as dual guide RNA, chemistry not given here) [CR003374]"
measurement_label = "Avg % Deletion"
numeric_readout = 0.10

[[record]]
chain_sequence = "ACACAAAUACCAGUCCAGCA (tested as dual guide RNA, chemistry not given here) [CR003339]"
measurement_label = "Avg % Deletion"
numeric_readout = 34.07

[[record]]
chain_sequence = "GCAACUUACCCAGAGGCAAA (tested as dual guide RNA, chemistry not given here) [CR003356]"
measurement_label = "Avg % Deletion"
numeric_readout = 2.23


###

tested on: TTR; test: TTR editing in HUH7 cells transfected with Spy Cas9 mRNA and dgRNAs (Table 5); type: cell-based, human; settings: HUH7 cells co-transfected with Spy Cas9 mRNA (SEQ ID NO:2) and dgRNAs
Measurement Label: Avg % Edit (%)

[[record]]
chain_sequence = "CAUUGAUGGCAGGACUGCCU (tested as dual guide RNA, chemistry not given here) [CR003347]"
measurement_label = "Avg % Edit"
numeric_readout = 32.16

[[record]]
chain_sequence = "AGACACCAAAUCUUACUGGA (tested as dual guide RNA, chemistry not given here) [CR003367]"
measurement_label = "Avg % Edit"
numeric_readout = 66.29

[[record]]
chain_sequence = "CCCAGAGGCAAAUGGCUCCC (tested as dual guide RNA, chemistry not given here) [CR003355]"
measurement_label = "Avg % Edit"
numeric_readout = 38.83

[[record]]
chain_sequence = "ACCUCUGCAUGCUCAUGGAA (tested as dual guide RNA, chemistry not given here) [CR003371]"
measurement_label = "Avg % Edit"
numeric_readout = 40.47

[[record]]
chain_sequence = "AAGUGCCUUCCAGUAAGAUU (tested as dual guide RNA, chemistry not given here) [CR003368]"
measurement_label = "Avg % Edit"
numeric_readout = 31.57

[[record]]
chain_sequence = "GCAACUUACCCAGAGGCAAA (tested as dual guide RNA, chemistry not given here) [CR003356]"
measurement_label = "Avg % Edit"
numeric_readout = 49.63

[[record]]
chain_sequence = "GGCUGUCGUCACCAAUCCCA (tested as dual guide RNA, chemistry not given here) [CR003391]"
measurement_label = "Avg % Edit"
numeric_readout = 61.31

[[record]]
chain_sequence = "CGGCAAUGGUGUAGCGGCGG (tested as dual guide RNA, chemistry not given here) [CR003376]"
measurement_label = "Avg % Edit"
numeric_readout = 19.42

[[record]]
chain_sequence = "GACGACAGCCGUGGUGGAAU (tested as dual guide RNA, chemistry not given here) [CR003388]"
measurement_label = "Avg % Edit"
numeric_readout = 59.48

[[record]]
chain_sequence = "AUACCAGUCCAGCAAGGCAG (tested as dual guide RNA, chemistry not given here) [CR003338]"
measurement_label = "Avg % Edit"
numeric_readout = 75.64

[[record]]
chain_sequence = "UGGACUGGUAUUUGUGUCUG (tested as dual guide RNA, chemistry not given here) [CR003340]"
measurement_label = "Avg % Edit"
numeric_readout = 46.93

[[record]]
chain_sequence = "GCAUGGGCUCACAACUGAGG (tested as dual guide RNA, chemistry not given here) [CR003362]"
measurement_label = "Avg % Edit"
numeric_readout = 26.43

[[record]]
chain_sequence = "AGUGAGUCUGGAGAGCUGCA (tested as dual guide RNA, chemistry not given here) [CR003359]"
measurement_label = "Avg % Edit"
numeric_readout = 66.75

[[record]]
chain_sequence = "CUCUGCAUGCUCAUGGAAUG (tested as dual guide RNA, chemistry not given here) [CR003369]"
measurement_label = "Avg % Edit"
numeric_readout = 24.19

[[record]]
chain_sequence = "CCUCUGCAUGCUCAUGGAAU (tested as dual guide RNA, chemistry not given here) [CR003370]"
measurement_label = "Avg % Edit"
numeric_readout = 39.16

[[record]]
chain_sequence = "AUAGGAGUAGGGGCUCAGCA (tested as dual guide RNA, chemistry not given here) [CR003383]"
measurement_label = "Avg % Edit"
numeric_readout = 42.89

[[record]]
chain_sequence = "AGGCAGUCCUGCCAUCAAUG (tested as dual guide RNA, chemistry not given here) [CR003348]"
measurement_label = "Avg % Edit"
numeric_readout = 57.14

[[record]]
chain_sequence = "GAAAGGCUGCUGAUGACACC (tested as dual guide RNA, chemistry not given here) [CR003352]"
measurement_label = "Avg % Edit"
numeric_readout = 39.68

[[record]]
chain_sequence = "UUUGACCAUCAGAGGACACU (tested as dual guide RNA, chemistry not given here) [CR003344]"
measurement_label = "Avg % Edit"
numeric_readout = 64.02

[[record]]
chain_sequence = "AAAGGCUGCUGAUGACACCU (tested as dual guide RNA, chemistry not given here) [CR003353]"
measurement_label = "Avg % Edit"
numeric_readout = 69.18

[[record]]
chain_sequence = "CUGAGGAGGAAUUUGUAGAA (tested as dual guide RNA, chemistry not given here) [CR003364]"
measurement_label = "Avg % Edit"
numeric_readout = 47.13

[[record]]
chain_sequence = "UACUCACCUCUGCAUGCUCA (tested as dual guide RNA, chemistry not given here) [CR003372]"
measurement_label = "Avg % Edit"
numeric_readout = 21.52

